Tested on: beige adipocytes
assay: Lipolysis validation assays of primary hits at three concentrations
Assay type: cell-based, human
settings: Homo sapiens, Adipocyte, 24 h; Conc. 20 µM; read-out: % of Control (1)
Counter-ions that a name gives are not always drawn.
assay readout: activity at 20 µM (%)
Give the value in % but do not write % after it.

Item: CC[C@@H]1C(=O)OC[C@@H]1Cc1cncn1C [Pilocarpine nitrate] | activity at 20 µM: 200

activity at 20 µM measured on `Cc1[nH]c(=O)c(C#N)cc1-c1ccncc1` = 168

Lab note: `C[n+]1cc2c3c(ccc2c2ccc4cc5c(cc4c21)OCO5)OCO3` gave activity at 20 µM of 185

// recorded activity at 20 µM for CC(C)NCC(O)c1cc(O)cc(O)c1 (centres unmarked) [Metaproterenol Sulfate] : 305

Record `C[C@@H]1CC(=O)NN=C1c1ccc(NN=C(C#N)C#N)cc1` . Reported activity at 20 µM: 261
